compounds and their reported remaining at 0.25 h, 1 µM
- experiment.notes: Metabolic stability in mouse liver microsomes assessed as parent compound remaining at 1 uM after 15 mins
- Type: ADME
- conditions: read-out: Stability
recorded.endpoint: remaining at 0.25 h, 1 µM (%)

test_smiles=COc1cc(CNC(=O)C2CCN([C@H](C)c3cccc4ccccc34)CC2)ccn1 recorded_endpoint="remaining at 0.25 h, 1 µM" units_symbol=% recorded_value=30
test_smiles=C[C@H](c1cccc2ccccc12)N1CCC(C(=O)NCc2cccc(F)c2)CC1 recorded_endpoint="remaining at 0.25 h, 1 µM" units_symbol=% recorded_value=1.2
test_smiles=C[C@H](c1cccc2ccccc12)N1CCC(C(=O)NCc2ccc3c(c2)OCO3)CC1 recorded_endpoint="remaining at 0.25 h, 1 µM" units_symbol=% recorded_value=0.2
test_smiles=CC(=O)Nc1cccc(CNC(=O)C2CCN([C@H](C)c3cccc4ccccc34)CC2)c1 recorded_endpoint="remaining at 0.25 h, 1 µM" units_symbol=% recorded_value=20
